target or system: KRAS-WT (Homo sapiens)
Sequence (P01116 with tags, fused parts or gaps isoform P01116-2): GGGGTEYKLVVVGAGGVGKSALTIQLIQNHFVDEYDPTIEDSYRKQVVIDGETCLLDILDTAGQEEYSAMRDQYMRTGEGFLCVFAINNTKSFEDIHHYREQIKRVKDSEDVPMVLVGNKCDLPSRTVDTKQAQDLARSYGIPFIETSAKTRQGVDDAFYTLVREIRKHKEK
measurement description: SOS-catalyzed nucleotide exchange assay (Procedure A, TR-FRET), KRAS-WT
Assay type: biochemical
run conditions: nucleotide exchange, read-out: KRAS WT GNE IC50
measurement type: IC50 (µM)

{"compound": "Cc1cc2[nH]ncc2c(-c2nccc3c2sc2nc(OC[C@@]45CCCN4C[C@H](F)C5)nc(N4CCOC[C@@](C)(O)C4)c23)c1C1CC1", "measurement type": "IC50", "unit info": "µM", "measured value": 0.0181}
{"compound": "CN(C)C1CC(F)(F)C2C[C@]12COc1nc(N2CCOC[C@@](C)(O)C2)c2c(n1)sc1c(-c3c(C4(F)CC4)c(Cl)cc4[nH]ncc34)nccc12 (stereo partly shown) [Ex-271]", "measurement type": "IC50", "unit info": "µM", "measured value": 0.0788}
{"compound": "C=C(C)c1c(C)cc2[nH]ncc2c1-c1nccc2c1sc1nc(OC[C@@]34CCCN3C[C@H](F)C4)nc(N3CCOC[C@@](C)(O)C3)c12", "measurement type": "IC50", "unit info": "µM", "measured value": 0.06}
{"compound": "Cc1cc2[nH]ncc2c(-c2nccc3c2sc2nc(OC[C@@]45CCCN4C[C@H](F)C5)nc(N4CCOC[C@@](C)(O)C4)c23)c1C12CC(C1)C2", "measurement type": "IC50", "unit info": "µM", "measured value": 0.0444}

---

target or system: KRAS-G12D (Homo sapiens, UniProt P01116, G12D)
Sequence (P01116 with tags, fused parts or gaps isoform P01116-2 G12D): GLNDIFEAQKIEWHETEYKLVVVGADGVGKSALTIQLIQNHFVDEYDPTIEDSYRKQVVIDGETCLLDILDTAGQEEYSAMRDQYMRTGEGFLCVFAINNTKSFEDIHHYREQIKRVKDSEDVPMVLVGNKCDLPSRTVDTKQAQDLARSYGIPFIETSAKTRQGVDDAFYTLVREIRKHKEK
measurement description: SOS-catalyzed nucleotide exchange assay (Procedure A, TR-FRET), KRAS-G12D
Assay type: biochemical
run conditions: nucleotide exchange, read-out: KRAS G12D GNE IC50
pIC50: −log10 of the molar value.
Label rule, in plain words: pIC50 of 8 and up is class 1, under 8 is class 0.

{"molecule": "C[C@@]1(O)COCCN(c2nc(OC[C@]3(CN4C[C@H]5COC[C@H]5C4)CC3(F)F)nc3sc4c(-c5c(C6(F)CC6)c(Cl)cc6[nH]ncc56)nccc4c23)C1", "qualitative label": "class 1"}
{"molecule": "CN1CC[C@H]2C(Oc3nc(N4CCOC[C@@](C)(O)C4)c4c(n3)sc3c(-c5c(C6CC6)c(Cl)cc6[nH]ncc56)nccc34)C[C@H]21 (stereo partly drawn)", "qualitative label": "class 0"}
{"molecule": "C[C@@]1(O)COCCN(c2nc(OC[C@@]34CCCN3C[C@]3(CC3(F)F)C4)nc3sc4c(-c5c(C6CC6)c(Cl)cc6[nH]ncc56)nccc4c23)C1", "qualitative label": "class 1"}
{"molecule": "C[C@@]1(O)COCCN(c2nc(OC[C@@]34CCCN3C[C@H](F)C4)nc3sc4c(-c5c(C6CC6)c(Cl)cc6[nH]ncc56)nncc4c23)C1", "qualitative label": "class 1"}
{"molecule": "C=C(F)c1c(C(F)(F)F)cc2[nH]ncc2c1-c1nccc2c1sc1nc(OC[C@@]34CCCN3C[C@H](F)C4)nc(N3CCOC[C@@](C)(O)C3)c12", "qualitative label": "class 1"}
{"molecule": "Cc1cc2[nH]ncc2c(-c2nccc3c2sc2nc(OC[C@@]45CCCN4C[C@H](F)C5)nc(NC45CC(O)(C4)C5)c23)c1C(F)(F)F", "qualitative label": "class 0"}
